Molecular target: CDK2 (Homo sapiens)
Construct: High-Throughput Measurement of Cellular Endogenous CDK2; endogenous in cells; host or cells: OVCAR3
Assay: High-throughput HTRF measurement of cellular endogenous CDK2 level (degradation, DC50/Dmax) in OVCAR3 cells, 6 h
Type: cell-based
Conditions: 6 h compound treatment, HTRF total CDK2, read-out: DC50_OVCAR3_6h
Protocol: High-Throughput Measurement of Cellular Endogenous CDK2 Effects of compounds on cellular CDK2 level were monitored by a high-throughput HTRF assay. To determine half maximal degradation concentration (DC50) and maximum degradation level (Dmax) values of compounds, cellular CDK2 level was measured in 96-well format using HTRF total CDK2 cellular kit (Cat #64CDK2TPEG) from Cisbio. […]
VALUE TYPE: DC50

INSERT INTO results (compound, value_type, endpoint_result) VALUES
  ('CC(Cc1cccc(S(=O)(=O)N2CCC(Nc3ncc(Cl)cn3)CC2)c1)CN1CCC(c2ccc3c(N4CCC(=O)NC4=O)nn(C)c3c2)CC1 (centres unmarked)', 'DC50', '10 to 100 nM'),
  ('Cn1c(S(=O)(=O)N2CCC(Nc3ncc(C(F)(F)F)cn3)CC2)cnc1CN1CCC(c2ccc3c(N4CCC(=O)NC4=O)nn(C)c3c2)CC1', 'DC50', '10 to 100 nM'),
  ('Cn1nc(N2CCC(=O)NC2=O)c2cc(F)c(C3CCN(CC4CCN(c5cc(S(=O)(=O)N6CCC(Nc7ncc(Cl)cn7)CC6)ccc5C#N)CC4)CC3)cc21', 'DC50', '10 to 100 nM');

Ask: # input compound: O=C1CCC(N2Cc3cc(N4CCN(Cc5cccc(S(=O)(=O)N6CCC(Nc7ncc(C(F)(F)F)cn7)CC6)c5)CC4)c(F)cc3C2=O)C(=O)N1 (centres unmarked) ; wanted: its DC50
Reply: 1 to 10 nM

Ask: // returns reported DC50 for input O=C1CCN(c2noc3cc(C4CCN(CC5CCN(c6cccc(S(=O)(=O)N7CCC(Nc8ncc(Cl)cn8)CC7)c6)CC5)CC4)ccc23)C(=O)N1
Reply: 1 to 10 nM

Ask: Given Cn1nc(N2CCC(=S)NC2=O)c2ccc(C3CCN(CC4CCN(c5cccc(S(=O)(=O)N6CCC(Nc7ncc(Cl)cn7)CC6)c5)CC4)CC3)cc21 , state its recorded DC50.
Reply: 10 to 100 nM

Ask: Which DC50 is reported for this compound? Cn1c(=O)n(C2CCC(=O)NC2=O)c2ccc(C3CCN(CC4CCN(c5cc(S(=O)(=O)N6CCC(Nc7ncc(C(F)(F)F)cn7)CC6)ccc5C#N)CC4)CC3)cc21 (centres unmarked)
Reply: 0.5 to 1 nM

Ask: DC50 lookup needed for O=C1CCC(N2Cc3cc(N4CCC(N5CC(Oc6cccc(S(=O)(=O)N7CCC(Nc8ncc(Cl)cn8)CC7)c6)C5)CC4)ccc3C2=O)C(=O)N1 (centres unmarked) , thanks.
Reply: 10 to 100 nM

Ask: What measured DC50 goes with N#Cc1ccc(S(=O)(=O)N2CCC(Nc3ncc(C(F)(F)F)cn3)CC2)cc1N1CCC(CN2CCC(c3cccc4c3oc(=O)n4C3CCC(=O)NC3=O)CC2)CC1 (centres unmarked) ?
Reply: 1 to 10 nM

Ask: # get_value(readout='DC50', item= Cn1cc(C2CCC(=O)NC2=O)c2ccc(C3CCN(CC4CCN(c5cccc(S(=O)(=O)N6CCC(Nc7ncc(C(F)(F)F)cn7)CC6)c5)CC4)CC3)cc21 (centres unmarked) )
Reply: 10 to 100 nM

Ask: Request the reported DC50 associated with Cn1nc(N2CCC(=O)NC2=O)c2ccc(C3CCN(CC4CCN(c5cccc(S(=O)(=O)N6CC[C@H](Nc7ncc(Cl)cn7)[C@H](F)C6)c5)CC4)CC3)cc21 (racemic)
Reply: 1 to 10 nM
